# TARGET_DESC: human CB1 receptor (Homo sapiens, UniProt P21554)
# Construct: host or cells: CHO-K1 (Chinese hamster ovary) cells, stably transfected; membranes prepared in house
# Sequence (P21554 whole entry): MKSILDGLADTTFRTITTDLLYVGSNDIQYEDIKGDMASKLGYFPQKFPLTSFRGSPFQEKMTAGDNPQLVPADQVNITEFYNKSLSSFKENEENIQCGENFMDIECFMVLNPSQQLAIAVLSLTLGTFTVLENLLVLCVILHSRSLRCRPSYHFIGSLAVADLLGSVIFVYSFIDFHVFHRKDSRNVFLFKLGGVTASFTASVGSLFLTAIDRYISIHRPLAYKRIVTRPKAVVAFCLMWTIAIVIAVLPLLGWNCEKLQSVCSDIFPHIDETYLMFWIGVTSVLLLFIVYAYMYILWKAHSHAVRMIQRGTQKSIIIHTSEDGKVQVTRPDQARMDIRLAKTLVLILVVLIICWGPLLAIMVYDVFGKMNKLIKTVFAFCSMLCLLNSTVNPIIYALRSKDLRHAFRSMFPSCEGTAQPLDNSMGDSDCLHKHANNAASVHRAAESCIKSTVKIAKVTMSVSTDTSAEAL
# TEST_DESCRIPTION: CB1 radioligand competitive binding assay ([3H]CP 55,940 displacement)
# TEST_CONTEXT: [3H]CP 55,940 displacement, membranes of CHO-K1 cells expressing human CB1 receptor; read-out: CB1 IC50
ASSAY_READOUT: IC50

C=C(C)C1CCC(C)=CC1c1c(OCOCC)cc(C(C)(C)CCCCCC)cc1OCOCC (stereo not shown) :: 1000 to 9990 nM

## Task Please list IC50 recorded for the compound C=C(C)C1CCC(C)=CC1c1c(O)cc(C(C)(C)CCCCCC)cc1OCOC(=O)C(C)(C)C (stereo not shown) [Compound 21d]
## Result 1000 to 9990 nM

## Task Please list IC50 recorded for the compound C=C(C)[C@@H]1CCC(C)=C[C@H]1c1c(O)cc(C(C)(C)CCCCCC)cc1OCOC(=O)OCC [Compound 22d]
## Result 50 to 990 nM

## Task Please list IC50 recorded for the compound CCCCCc1cc(OCOCCOC)c(C2C=C(C)CCC2)c(OCOCCOC)c1 (stereo not shown)
## Result 50 to 990 nM

====

The entries below come with measured IC50 values attached.
# TARGET_DESC: human CB1 receptor (Homo sapiens)
# Construct: host or cells: CHO-K1 (Chinese hamster ovary) cells, stably transfected; membranes prepared in house
# TEST_DESCRIPTION: CB1 radioligand competitive binding assay ([3H]CP 55,940 displacement)

Example entries and their recorded answers appear below.
C=C(C)[C@@H]1CCC(C)=C[C@H]1c1c(O)cc(CCCCC)cc1OCN(C(=O)OC)c1ccccc1 [Compound 14d] :: 50 to 990 nM
C=C(C)[C@@H]1CCC(C)=C[C@H]1c1c(O)cc(CCCCC)cc1OCOC(=O)OCC [Compound 5d] :: 1000 to 9990 nM

Please find the next compound below.
## Task Please list IC50 recorded for the compound CCCCCc1cc(O)c(-c2cccc(C)c2)c(OCOC(=O)OCC)c1 [Compound 5a]
## Result 1000 to 9990 nM

====

# TARGET_DESC: human CB2 receptor (Homo sapiens, UniProt P34972)
# Construct: host or cells: CHO-K1 (Chinese hamster ovary) cells, stably transfected; membranes prepared in house
# Sequence (P34972 whole entry): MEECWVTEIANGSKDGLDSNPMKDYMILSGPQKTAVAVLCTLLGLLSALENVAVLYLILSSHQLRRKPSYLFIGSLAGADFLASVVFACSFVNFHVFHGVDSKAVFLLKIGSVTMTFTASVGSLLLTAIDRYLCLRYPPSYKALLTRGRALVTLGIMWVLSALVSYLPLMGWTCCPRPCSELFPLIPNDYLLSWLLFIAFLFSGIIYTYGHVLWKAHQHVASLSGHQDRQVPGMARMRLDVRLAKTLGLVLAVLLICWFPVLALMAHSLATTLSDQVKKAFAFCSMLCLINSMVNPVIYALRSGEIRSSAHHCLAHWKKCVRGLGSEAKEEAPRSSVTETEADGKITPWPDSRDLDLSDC
# TEST_DESCRIPTION: CB2 radioligand competitive binding assay ([3H]CP 55,940 displacement)
# TEST_CONTEXT: [3H]CP 55,940 displacement, membranes of CHO-K1 cells expressing human CB2 receptor; read-out: CB2 IC50
pIC50: −log10 of the molar value.
ASSAY_READOUT: pIC50

Example entries and their recorded answers appear below.
C=C(C)C1CCC(C)=CC1c1c(O)cc(C(C)(C)CCCCCC)cc1OCN(C(=O)OC)c1ccccc1 (centres unmarked) [Compound 20d] :: 6.00 to 7.30
CCCCCc1cc(OCOC(=O)C(C)(C)C)c(-c2cccc(C)c2)c(OCOC(=O)C(C)(C)C)c1 [8′a] :: 6.00 to 7.30
C=C(C)C1CCC(C)=CC1c1c(OCOC(=O)C(C)(C)C)cc(C(C)(C)CCCCCC)cc1OCOC(=O)C(C)(C)C (centres unmarked) [21′d] :: 5.00 to 6.00
C=C(C)C1CCC(C)=CC1c1c(OCOC2CCCCC2)cc(CCCCC)cc1OCOC1CCCCC1 (centres unmarked) [18′d] :: < 5.00
CCCCCc1cc(OCOCCOC)c(-c2cccc(C)c2)c(OCOCCOC)c1 [2′a] :: 6.00 to 7.30

## Task Please list pIC50 recorded for the molecule C=C(C)C1CCC(C)=CC1c1c(O)cc(C(C)(C)CCCCCC)cc1OCOCC (centres unmarked) [Compound 19d]
## Result 6.00 to 7.30

## Task Please list pIC50 recorded for the molecule C=C(C)C1CCC(C)=CC1c1c(O)cc(C(C)(C)CCCCCC)cc1OCOC(=O)C(C)(C)C (centres unmarked) [Compound 21d]
## Result 5.00 to 6.00

## Task Please list pIC50 recorded for the molecule C=C(C)C1CCC(C)=CC1c1c(OCOCC)cc(C(C)(C)CCCCCC)cc1OCOCC (centres unmarked) [19′d]
## Result 5.00 to 6.00

====

# TARGET_DESC: human CB2 receptor (Homo sapiens)
# Construct: host or cells: CHO-K1 (Chinese hamster ovary) cells, stably transfected; membranes prepared in house
# TEST_DESCRIPTION: CB2 radioligand competitive binding assay ([3H]CP 55,940 displacement)
The entries below come with measured IC50 values attached.

Example entries and their recorded answers appear below.
C=C(C)[C@@H]1CCC(C)=C[C@H]1c1c(O)cc(CCCCC)cc1OCOC(=O)OCC :: 1000 to 9990 nM
CCCCCc1cc(O)c(-c2cccc(C)c2)c(OCOC(=O)OCC)c1 :: 50 to 990 nM

Please find the next compound below.
## Task Please list IC50 recorded for the compound C=C(C)[C@@H]1CCC(C)=C[C@H]1c1c(O)cc(CCCCC)cc1OCN(C(=O)OC)c1ccccc1 [Compound 14d]
## Result 50 to 990 nM

====

# TARGET_DESC: human CB1 receptor (Homo sapiens)
# Construct: host or cells: CHO-K1 (Chinese hamster ovary) cells, stably transfected; membranes prepared in house
# TEST_DESCRIPTION: CB1 radioligand competitive binding assay ([3H]CP 55,940 displacement)
# TEST_CONTEXT: [3H]CP 55,940 displacement, membranes of CHO-K1 cells expressing human CB1 receptor; read-out: CB1 IC50
The entries below come with measured IC50 values attached.

Example entries and their recorded answers appear below.
C=C(C)C1CCC(C)=CC1c1c(OCOCC)cc(CCCCC)cc1OCOCC (centres unmarked) [17′d] :: 1000 to 9990 nM
C=C(C)C1CCC(C)=CC1c1c(O)cc(CCCCC)cc1OCOCC (centres unmarked) [Compound 17d] :: 1000 to 9990 nM
CCCCCc1cc(O)c(-c2cccc(C)c2)c(OCOC(=O)C(C)(C)C)c1 [Compound 8a] :: 50 to 990 nM
C=C(C)C1CCC(C)=CC1c1c(OCOC(=O)C(C)(C)C)cc(CCCCC)cc1OCOC(=O)C(C)(C)C (centres unmarked) [8′d] :: 1000 to 9990 nM
CCCCCc1cc(OCOCC)c(C2C=C(C)CCC2)c(OCOCC)c1 (centres unmarked) [17′c] :: 1000 to 9990 nM

Please find the next compound below.
## Task Please list IC50 recorded for the compound C=C(C)C1CCC(C)=CC1c1c(O)cc(C(C)(C)CCCCCC)cc1OCOCC (centres unmarked) [Compound 19d]
## Result 50 to 990 nM

====

# TARGET_DESC: human CB2 receptor (Homo sapiens)
# Construct: host or cells: CHO-K1 (Chinese hamster ovary) cells, stably transfected; membranes prepared in house
# TEST_DESCRIPTION: CB2 radioligand competitive binding assay ([3H]CP 55,940 displacement)
# TEST_CONTEXT: [3H]CP 55,940 displacement, membranes of CHO-K1 cells expressing human CB2 receptor; read-out: CB2 IC50
pIC50: −log10 of the molar value.
ASSAY_READOUT: pIC50

Example entries and their recorded answers appear below.
CCCCCc1cc(OCOCCOC)c(C2C=C(C)CCC2)c(OCOCCOC)c1 (stereo not shown) [2′c] :: > 7.30
CCCCCc1cc(O)c(C2C=C(C)CCC2)c(OCOCCOC)c1 (stereo not shown) [Compound 2c] :: 6.00 to 7.30
C=C(C)C1CCC(C)=CC1c1c(OCOC(=O)C(C)(C)C)cc(CCCCC)cc1OCOC(=O)C(C)(C)C (stereo not shown) [8′d] :: 5.00 to 6.00

Please find the next compound below.
## Task Please look at CCCCCc1cc(OCN(C(=O)OC)c2ccccc2)c(-c2cccc(C)c2)c(OCN(C(=O)OC)c2ccccc2)c1 [14′a] and tell me its recorded pIC50 on human CB2 receptor (Homo sapiens).
## Result 6.00 to 7.30

====

# TARGET_DESC: human CB2 receptor (Homo sapiens, UniProt P34972)
# Construct: host or cells: CHO-K1 (Chinese hamster ovary) cells, stably transfected; membranes prepared in house
# TEST_DESCRIPTION: CB2 radioligand competitive binding assay ([3H]CP 55,940 displacement)
# TEST_CONTEXT: [3H]CP 55,940 displacement, membranes of CHO-K1 cells expressing human CB2 receptor; read-out: CB2 IC50
pIC50: −log10 of the molar value.
ASSAY_READOUT: pIC50

Example entries and their recorded answers appear below.
C=C(C)C1CCC(C)=CC1c1c(O)cc(CCCCC)cc1OCOCC (stereo not drawn) [Compound 17d] :: 6.00 to 7.30
CCCCCc1cc(OCOCC)c(-c2cccc(C)c2)c(OCOCC)c1 :: 6.00 to 7.30
CCCCCc1cc(O)c(-c2cccc(C)c2)c(OCOCC)c1 [Compound 17a] :: 5.00 to 6.00
C=C(C)C1CCC(C)=CC1c1c(O)cc(CCCCC)cc1OCOC1CCCCC1 (stereo not drawn) [Compound 18d] :: 6.00 to 7.30

## Task Please look at C=C(C)C1CCC(C)=CC1c1c(OCOCCOC)cc(CCCCC)cc1OCOCCOC (stereo not drawn) and tell me its recorded pIC50 on human CB2 receptor (Homo sapiens, UniProt P34972).
## Result 6.00 to 7.30

## Task Please look at C=C(C)[C@@H]1CCC(C)=C[C@H]1c1c(O)cc(CCC)cc1OCOC(=O)OCC [Compound 24d] and tell me its recorded pIC50 on human CB2 receptor (Homo sapiens, UniProt P34972).
## Result 6.00 to 7.30

## Task Please look at CCCCCc1cc(OCOC(=O)C(C)(C)C)c(C2C=C(C)CCC2)c(OCOC(=O)C(C)(C)C)c1 (stereo not drawn) and tell me its recorded pIC50 on human CB2 receptor (Homo sapiens, UniProt P34972).
## Result > 7.30

## Task Please look at CCCCCc1cc(O)c(-c2cccc(C)c2)c(OCOC(=O)C(C)(C)C)c1 and tell me its recorded pIC50 on human CB2 receptor (Homo sapiens, UniProt P34972).
## Result > 7.30

## Task Please look at C=C(C)C1CCC(C)=CC1c1c(O)cc(CCCCC)cc1OCOCCOC (stereo not drawn) and tell me its recorded pIC50 on human CB2 receptor (Homo sapiens, UniProt P34972).
## Result 5.00 to 6.00
